Counter-ions that a name gives are not always drawn.
Recorded melting point by entry
readout: melting point

> print(dat)
                                    molecule  recorded.result
 1  CC(C)n1c(/C=C/[C@@H](O)C[C@@H](O)CC(=O)O)c(-c2ccc(F)cc2)c(-c2ccccc2)c1C(=O)Nc1ccc(S(N)(=O)=O)cc1 (as salt: sodium)    255 to 256 °C
 2  CNC(=O)c1c(-c2ccccc2)c(-c2ccc(F)cc2)c(CC[C@@H](O)C[C@@H](O)CC(=O)[O-])n1C(C)C.[Na+]    238 to 240 °C
 3  CC(C)n1c(CC[C@@H](O)C[C@@H](O)CC(=O)[O-])c(-c2ccc(F)cc2)c(-c2ccc(F)cc2)c1C(=O)Nc1ccc(O)cc1.[Na+]    228 to 230 °C
 4  CC(C)n1c(/C=C/[C@@H](O)C[C@@H](O)CC(=O)[O-])c(-c2ccc(F)cc2)c(-c2ccc(F)cc2)c1C(=O)Nc1ccccc1OCc1ccccc1.[Na+]    228 to 229 °C
 5  COc1cccc(NC(=O)c2c(-c3ccc(F)cc3)c(-c3ccc(F)cc3)c(CC[C@@H](O)C[C@@H](O)CC(=O)[O-])n2C(C)C)c1.[Na+]    215 to 217 °C
 6  CC(C)n1c(CCC(O)C[C@@H](O)CC(=O)[O-])c(-c2ccc(F)cc2)c(-c2ccccc2)c1C(=O)Nc1ccccc1.[Na+] (some centres unmarked)    240 to 242 °C
 7  CC(C)n1c(/C=C/[C@@H](O)C[C@@H](O)CC(=O)[O-])c(-c2ccc(F)cc2)c(-c2ccccc2)c1C(=O)Nc1cccc(C#N)c1.[Na+]    210 to 212 °C
 8  CC(C)OC(=O)c1ccc(CNC(=O)c2c(-c3ccccc3)c(-c3ccc(F)cc3)c(/C=C/[C@@H](O)C[C@@H](O)CC(=O)[O-])n2C(C)C)cc1.[Na+]    222 to 224 °C
 9  COc1cccc(NC(=O)c2c(-c3ccc(F)cc3)c(-c3ccc(F)cc3)c(/C=C/[C@@H](O)C[C@@H](O)CC(=O)[O-])n2C(C)C)c1.[Na+]    225 to 227 °C
10  CCc1cccc(NC(=O)c2c(-c3ccc(F)cc3)c(-c3ccc(F)cc3)c(/C=C/[C@@H](O)C[C@@H](O)CC(=O)[O-])n2C(C)C)c1.[Na+]    229 to 230 °C
11  CCc1cccc(NC(=O)c2c(-c3ccc(F)cc3)c(-c3ccc(F)cc3)c(CC[C@@H](O)C[C@@H](O)CC(=O)[O-])n2C(C)C)c1.[Na+]    175 to 177 °C
